# Target: Nuclear factor NF-kappa-B p105 subunit (Homo sapiens)
# Sequence (P19838 1-433 limits assumed): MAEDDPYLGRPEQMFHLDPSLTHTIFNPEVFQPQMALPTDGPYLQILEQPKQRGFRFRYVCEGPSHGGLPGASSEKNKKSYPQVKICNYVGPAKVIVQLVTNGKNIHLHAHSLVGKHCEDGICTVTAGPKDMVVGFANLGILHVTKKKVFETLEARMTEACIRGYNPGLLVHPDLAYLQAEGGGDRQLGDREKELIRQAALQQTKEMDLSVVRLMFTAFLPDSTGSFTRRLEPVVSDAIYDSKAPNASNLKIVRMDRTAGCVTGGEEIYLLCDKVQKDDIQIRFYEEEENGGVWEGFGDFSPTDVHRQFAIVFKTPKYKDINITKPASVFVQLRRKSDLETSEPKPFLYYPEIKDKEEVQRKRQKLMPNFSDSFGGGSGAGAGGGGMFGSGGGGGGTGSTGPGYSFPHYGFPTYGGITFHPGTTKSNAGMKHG
# Assay method text: Inhibition of NF-KB p50 subunit/DNA interaction after 20 mins by EMSA
pIC50: −log10 of the molar value.
Quantity name: pIC50

// known answers, use as guide
Molecular string | Target | Quantity name | Data value
O=c1c(Br)cc2c(-c3ccccc3S(=O)(=O)O)c3cc(Br)c(O)c(O)c3oc-2c1O | Nuclear factor NF-kappa-B p105 subunit (Homo sapiens) | pIC50 | 4.52
O=C(O)/C=C/c1ccccc1O | Nuclear factor NF-kappa-B p105 subunit (Homo sapiens) | pIC50 | 4.30
O=C(O)c1ccc(COc2cc(O)cc3oc(=O)c4c(c23)CCC4)cc1 | Nuclear factor NF-kappa-B p105 subunit (Homo sapiens) | pIC50 | 2.30

[1] Cc1cc(=O)oc2cc(O)ccc12
[2] COCCNc1oc2c(c1-c1cc(OC)c(OC)c(OC)c1)c(=O)oc1c(C)cccc12
[3] O=c1ccc2cc3ccoc3cc2o1
[4] O=c1cc(-c2ccccc2)c2cc3c(-c4ccc5c(c4)OCO5)coc3cc2o1
[5] O=c1ccc2c(-c3ccccc3S(=O)(=O)O)c3ccc(O)c(O)c3oc-2c1O
Returns the items ordered by pIC50, from maximum to minimum. Reply format: the labels, ordered as requested.
5, 4, 2, 1, 3
